Attribution: paper PMC8466238

- measured.on: T1, calcitonin receptor extracellular domain (hCTR.34–141-H6) (human, UniProt P30988 34-141)
- T1 construct: human calcitonin receptor (CTR), extracellular domain, residues 34-141; Secreted from a pHLsec-based vector; also called CTR ECD; purified CTR ECD; source: HEK293T, transiently transfected, secreted to cell culture media, purified (IMAC, SEC)
- T1 sequence (looked up): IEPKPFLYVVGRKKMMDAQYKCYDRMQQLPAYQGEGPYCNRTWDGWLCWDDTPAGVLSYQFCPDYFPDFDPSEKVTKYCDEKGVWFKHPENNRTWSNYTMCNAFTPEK
- experiment.summary: fluorescence polarisation; competition binding, full curves: FITC-sCT(22–32) probe 10 nM, CTR ECD 500 nM, competitive peptide at multiple concentrations, all in solution; KI from non-linear regression of anisotropy
- settings: both partners purified
Where no end group is shown, it is not given here. [ ]: non-standard residue; d: D form. Hyp = O=C(O)[C@@H]1C[C@@H](O)CN1

binder | Ki
YPRTNTGPGTP-NH2 (salmon calcitonin (sCT), residues 22-32, with S29P; numbers count on: the mature 32-residue hormone; source: synthetic peptide (Genscript, HPLC-purified)) [sCT(22–32) S29P] | 343 nM
YPRTDTGPGT[Hyp]-NH2 (salmon calcitonin (sCT), residues 22-32, with N26D, S29P and P32HYP; numbers count on: the mature 32-residue hormone; Residue 32 is hydroxyproline, not plain proline; also called the mutated sCT(22–32); sCT(22–32) with the combined mutations (N26D, S29P, and P32HYP); source: synthetic peptide (Genscript, HPLC-purified)) [sCT(22–32) N26D/S29P/P32HYP] | 95 nM
YPRTNTGSGT[Hyp]-NH2 (N-terminus assumed; SMILES C[C@@H](O)[C@H](NC(=O)[C@H](CC(N)=O)NC(=O)[C@@H](NC(=O)[C@H](CCCNC(=N)N)NC(=O)[C@@H]1CCCN1C(=O)[C@@H](N)Cc1ccc(O)cc1)[C@@H](C)O)C(=O)NCC(=O)N[C@@H](CO)C(=O)NCC(=O)N[C@H](C(=O)N1C[C@H](O)C[C@H]1C(N)=O)[C@@H](C)O, salmon calcitonin (sCT), residues 22-32, with P32HYP; numbers count on: the mature 32-residue hormone; Residue 32 is hydroxyproline, not plain proline; source: synthetic peptide (Genscript, HPLC-purified)) [sCT(22–32) P32HYP] | 887 nM
YPRTDTGAGTP-NH2 (salmon calcitonin (sCT), residues 22-32, with N26D and S29A; numbers count on: the mature 32-residue hormone; source: synthetic peptide (Genscript, HPLC-purified)) [sCT(22–32) N26D/S29A] | 437 nM
